- Test system: HCT-116 colon
- Test Name: NCI tumour cell line growth inhibition, 48 h; in the data active = GI50 below about 0.43 µM; inactive = the rest
// one of active, inactive, no free text

## Task Outcome logged for "Cc1sc(C(=O)Nc2cc(C(=O)NCCCN(C)C)n(C)c2)cc1NC(=O)CCCN1C(=O)c2cccc3cccc(c23)C1=O" in this assay:
## Result inactive

## Task Per the records of this test, what outcome belongs to "Cc1ccncc1.[O]=[Ge].[O]=[Ge].[O]=[Ge].[O]=[Ge].[O]=[Ge].[O]=[Ge][OH].[O]=[Ge][OH]" ?
## Result inactive

## Task // return assay outcome for "CCN(Cc1ccc(F)c(F)c1)c1ccc(CO)c(Cl)c1"
## Result active

## Task Dear all, I need the recorded test outcome for "COc1cc(Cl)cc(-c2nn(C(=O)NCCN3CCOCC3)cc2-c2ccncc2)c1" , thank you.
## Result inactive

## Task Tell me the recorded outcome of this test for CCCCCn1c(=N)n(CC(O)COc2cccc(C)c2)c2ccccc21 (stereo unspecified) .
## Result inactive

## Task Field: outcome | Entry: "COC(=O)[C@]12CC[C@@H](C)[C@H](C)[C@@H]1C1=CC[C@@H]3[C@@]4(C)C[C@@H](OC(C)=O)[C@H](O)[C@@](C)(COC(C)=O)[C@@H]4[C@H](O)C[C@@]3(C)[C@]1(C)CC2"
## Result inactive
